# ASSAY TARGET: MMP-1 (Homo sapiens, UniProt P03956)
# Construct: made in house; host or cells: MMP-1-transfected HT-1080 cells (spent media)
# Sequence (P03956 100-469): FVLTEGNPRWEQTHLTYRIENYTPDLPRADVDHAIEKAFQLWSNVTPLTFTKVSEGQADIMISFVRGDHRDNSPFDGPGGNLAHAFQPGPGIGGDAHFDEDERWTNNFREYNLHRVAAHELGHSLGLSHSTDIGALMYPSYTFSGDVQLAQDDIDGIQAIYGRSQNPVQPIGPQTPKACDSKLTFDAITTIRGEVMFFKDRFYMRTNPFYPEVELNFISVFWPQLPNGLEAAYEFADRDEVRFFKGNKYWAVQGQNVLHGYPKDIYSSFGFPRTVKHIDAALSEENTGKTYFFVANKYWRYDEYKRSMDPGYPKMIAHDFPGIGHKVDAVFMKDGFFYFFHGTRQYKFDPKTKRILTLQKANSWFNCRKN
# TEST PROTOCOL: In vitro MMP inhibition, Ki determination (fluorogenic substrate II)
# Type: biochemical
# STATED CONDITIONS: value outside parentheses; read-out: MMP-1 Ki
pKi: −log10 of the molar value.
ASSAY METRIC: pKi

Solved cases below.
>>> quantitative_result("O=C(NO)C1(S(=O)(=O)N2CCC(c3ccc(OC(F)(F)C(F)F)cc3)CC2)CCOCC1 [Example 337]")
5.48
>>> quantitative_result("O=C(NO)C1(S(=O)(=O)N2CCC(c3ccc(-c4cccc(F)c4)cn3)CC2)CCOCC1 [Example 417]")
5.74
>>> quantitative_result("CCCCOc1ccc(N2CCN(S(=O)(=O)C3(C(=O)NO)CCN(CCOC)CC3)CC2)nc1 [Example 325]")
5.12

(1) CCC=C1CCN(S(=O)(=O)C2(C(=O)NO)CCOCC2)CC1 [Example 374]
(2) CCCCOc1ccc(N2CCN(S(=O)(=O)C3(C(=O)NO)CCN(C(=O)COC)CC3)CC2)cc1 [Example 268]
(3) O=C(NO)C1(S(=O)(=O)N2CCC(c3ccc(-c4ccccc4)cn3)CC2)CCOCC1 [Example 392]
Qu. Give the ascending ranking of the items by reported pKi. Your task in answering is to list the labels in the requested order.
Ans. 2, 3, 1

(A) CCc1ccc(-c2cnc(N3CCN(S(=O)(=O)C4(C(=O)NO)CCOCC4)CC3)s2)cc1 [Example 381]
(B) CCCCCc1ccc(C2CCN(S(=O)(=O)C3(C(=O)NO)CCOCC3)CC2)nc1 [Example 305]
Qu. Pick one, A or B : lowest reported pKi. Pick one; state its label.
Ans. B
(B: 5.17, A: 5.49)
